Assay: inhibitors of Sendai virus-induced IRF3 signaling, primary screen, TLR/RLR signaling modifier project, cell-based, Sendai virus stimulus, luciferase, 10K MLSCN set (AID 602276);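 note: firefly luciferase from ISG56 promoter only with Renilla not read in this screen; 0% = Sendai virus plus DMSO and 100% = medium plus DMSO without virus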
Details: HEK293 RL24 IRF3 luciferase reporter, at 10 µM, active compounds read high
reported endpoint: inhibition (%)

>>> recorded_number("Cc1c(Cl)cccc1Nc1ccccc1C(=O)O")
4.32
>>> recorded_number("CC1(C)S[C@@H]2[C@H](NC(=O)C(C(=O)O)c3ccccc3)C(=O)N2[C@H]1C(=O)O (stereo partly specified)")
-4.51
>>> recorded_number("Cc1ccc(-n2nc3cc(Cl)c(NC(=O)c4ccco4)cc3n2)cc1")
-16.5
>>> recorded_number("CN(Cc1ccccc1)Cc1c[nH]c2ccccc12")
13.3
>>> recorded_number("C[C@@H]1C[C@H]2[C@@H]3C[C@H](F)C4=CC(=O)C=C[C@]4(C)[C@@]3(F)[C@@H](O)C[C@]2(C)[C@@]1(O)C(=O)COC(=O)C(C)(C)C")
2.87
>>> recorded_number("Cn1c(=O)c2c(nc(NCc3ccc4c(c3)OCO4)n2Cc2ccccc2F)n(C)c1=O")
-2.97
>>> recorded_number("COc1ccc2cnn(-c3ccccc3C)c(=O)c2c1OC")
9.25
>>> recorded_number("CCCCn1cnc2c(c1=O)c1nc3ccccc3nc1n2Cc1ccc2c(c1)OCO2")
7.61
>>> recorded_number("CC(C)CCNC(=O)[C@H](CC(C)C)NC(=O)[C@H]1O[C@@H]1C(=O)O")
10.1
>>> recorded_number("CC1(C)S[C@@H]2[C@H](NC(=O)[C@H](C(=O)O)c3ccsc3)C(=O)N2[C@H]1C(=O)O")
12.3
>>> recorded_number("CCC1(c2ccccc2)C(=O)NCNC1=O")
17
